Assay: ATG_DR4_LXR_CIS: Attagene CIS-FACTORIAL HepG2 Assay for human Liver X Receptor (LXR), DR4 submotif (AID 2282929)
Conditions: HepG2 Attagene DR4 cis-reporter, mRNA transcription; actives raise or lower the signal
Calls of active or inactive are those of the source. Rule for the calls: active = hit-call score of the fitted dose curve at least 0.9, where 1 is the maximum; inactive = score below 0.9.
Recorded metric: AC50

>  <Compound>
CCCCCCCCO

>  <Recorded metric>
AC50

>  <Value observed>
inactive

$$$$
>  <Compound>
COc1cccc(-c2ccc(/C=C\CN3CCCCCC3)cc2Cl)c1

>  <Recorded metric>
AC50

>  <Value observed>
inactive

$$$$
>  <Compound>
CN(C)c1ccc(Cc2ccc(N(C)C)cc2)cc1

>  <Recorded metric>
AC50

>  <Value observed>
inactive

$$$$
>  <Compound>
CC/C(=C\C(=N/O)C(N)=O)C(C)[N+](=O)[O-] (stereo not drawn)

>  <Recorded metric>
AC50

>  <Value observed>
inactive

$$$$
>  <Compound>
Cc1c(-c2cccnc2)c2ccccc2n1CCCCC(=O)O

>  <Recorded metric>
AC50

>  <Value observed>
inactive

$$$$
>  <Compound>
O=C1OC(=O)C2C3C=CC(C3)C12 (stereo not drawn)

>  <Recorded metric>
AC50

>  <Value observed>
inactive

$$$$
>  <Compound>
O=C(O)CCN(C1(C(=O)NO)CCCC1)S(=O)(=O)c1ccc(Oc2ccc(F)cc2)cc1

>  <Recorded metric>
AC50

>  <Value observed>
inactive

$$$$
>  <Compound>
CCOC(=O)c1ccc(C2CCC(NC[C@H](O)COc3ccc(O)c(NS(C)(=O)=O)c3)CC2)cc1 (stereo partly drawn)

>  <Recorded metric>
AC50

>  <Value observed>
60 µM (active)

$$$$
>  <Compound>
COC(=O)c1c(Cl)c(Cl)c(C(=O)OC)c(Cl)c1Cl

>  <Recorded metric>
AC50

>  <Value observed>
inactive

$$$$
>  <Compound>
CC(C)CCCCCCCOC(=O)CCCCC(=O)OCCCCCCCC(C)C

>  <Recorded metric>
AC50

>  <Value observed>
inactive

$$$$
>  <Compound>
Nc1cccc(N)c1

>  <Recorded metric>
AC50

>  <Value observed>
inactive

$$$$
>  <Compound>
C1N2CN3CN1CN(C2)C3

>  <Recorded metric>
AC50

>  <Value observed>
inactive

$$$$
>  <Compound>
Oc1ccc2c(c1)-c1ccccc1C2

>  <Recorded metric>
AC50

>  <Value observed>
1.79 µM (active)

$$$$

----------
Read-out: Interleukin-1 alpha (IL1a), IL1A (gene 3552)
Experiment: BSK_KF3CT_IL1a: BioMAP Diversity Plus: KF3CT Assay for Interleukin-1 alpha (IL1a) Biomarker Activity (AID 2283070)
Settings: primary human keratinocytes with fibroblasts; actives raise or lower the signal
Method: BSK_KF3CT is a cell-based, multiplexed-readout assay that uses keratinocytes and foreskin fibroblasts, a human skin primary cell co-culture, with measurements taken at 24 hours after chemical dosing in a 96-well plate.BSK_KF3CT_IL1a is an assay component measured in the BSK_KF3CT assay. It measures IL-1a antibody related to regulation of gene expression using ELISA technology.Data from the assay component BSK_KF3CT_IL1a was analyzed into 1 assay endpoint. […]
Active and inactive are the calls of the source. How the source made its calls: active means hit-call score of the fitted dose curve at least 0.9, where 1 is the maximum; inactive means score below 0.9.
Labels: label 1 = active, label 0 = inactive

>  <Molecule>
Clc1nc(Cl)c(Cl)c(Cl)c1Cl

>  <Label class>
label 0

$$$$
>  <Molecule>
Cc1c(-c2cccnc2)c2ccccc2n1CCCCC(=O)O

>  <Label class>
label 0

$$$$
>  <Molecule>
CC[C@H](C)C(=O)O[C@H]1C[C@@H](C)C=C2C=C[C@H](C)[C@H](CC[C@@H]3C[C@@H](O)CC(=O)O3)[C@H]21

>  <Label class>
label 1

$$$$
>  <Molecule>
O=c1n(CC2CO2)c(=O)n(CC2CO2)c(=O)n1CC1CO1 (stereo unspecified)

>  <Label class>
label 0

$$$$
>  <Molecule>
CCCN(C1CCN(C(=O)C2CCNCC2)CC1)[C@@H]1CCc2ccc(OC)cc2C1

>  <Label class>
label 0

$$$$
>  <Molecule>
CC(C)=CCC/C(C)=C/CO

>  <Label class>
label 0

$$$$
>  <Molecule>
Nc1nc2ncc(CNc3ccc(C(=O)N[C@@H](CCC(=O)O)C(=O)O)cc3)nc2c(=O)[nH]1

>  <Label class>
label 0

$$$$
>  <Molecule>
CCC(C)(C)C(=O)O[C@H]1C[C@@H](C)C=C2C=C[C@H](C)[C@H](CC[C@@H]3C[C@@H](O)CC(=O)O3)[C@H]21

>  <Label class>
label 1

$$$$
>  <Molecule>
Cc1ccc(S(=O)(=O)O)cc1C

>  <Label class>
label 0

$$$$
>  <Molecule>
CC(C)(O)c1coc(S(=O)(=O)NC(=O)Nc2c3c(cc4c2CCC4)CCC3)c1

>  <Label class>
label 0

$$$$
>  <Molecule>
CCCCCCCCO

>  <Label class>
label 0

$$$$

----------
Test: BSK_3C_SRB: Viability Assessment in the BioMAP Diversity Plus: 3C Assay (AID 2283023);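 note: cells read 24 h after compound dosing; fitted both ways against DMSO so a hit may be signal rise or drop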
Details: primary human endothelial cells (HUVEC)
Calls of active or inactive are those of the source. Rule for the calls: active = hit-call score of the fitted dose curve at least 0.9, where 1 is the maximum; inactive = score below 0.9.
Classes used: y = active, n = inactive

>  <Molecule>
CC(O)CN(CCN(CC(C)O)CC(C)O)CC(C)O (stereo not drawn)

>  <Label class>
n

$$$$
>  <Molecule>
CC(C)c1cccc(C(C)C)c1N1C(=O)c2ccc(O)cc2C1=O

>  <Label class>
y

$$$$
>  <Molecule>
NC(=O)NO

>  <Label class>
n

$$$$
>  <Molecule>
O=C(O)c1cccc(N(Cc2cccnc2)c2ccc(OC(F)F)c(OC(F)F)c2)c1

>  <Label class>
n

$$$$
>  <Molecule>
O=C(O)c1cccc(Oc2ccccc2)c1

>  <Label class>
n

$$$$
>  <Molecule>
CCOC(=O)c1ccc(C2CCC(NC[C@H](O)COc3ccc(O)c(NS(C)(=O)=O)c3)CC2)cc1 (stereo partly drawn)

>  <Label class>
y

$$$$
>  <Molecule>
COC(=O)c1c(Cl)c(Cl)c(C(=O)OC)c(Cl)c1Cl

>  <Label class>
n

$$$$
>  <Molecule>
CCOCCO

>  <Label class>
n

$$$$
>  <Molecule>
CCCCCCCCCCCCCCCO

>  <Label class>
y

$$$$
>  <Molecule>
Cc1ccc(S(=O)(=O)O)cc1C

>  <Label class>
n

$$$$
>  <Molecule>
CN(C)c1ccc(N=NS(=O)(=O)O)cc1

>  <Label class>
n

$$$$
>  <Molecule>
O=C1OC(=O)C2C3C=CC(C3)C12 (stereo not drawn)

>  <Label class>
n

$$$$
>  <Molecule>
Cn1c(=O)cc(Oc2ccc(F)cc2F)c2cnc(NCC(C)(C)O)nc21

>  <Label class>
n

$$$$
>  <Molecule>
O=C(CCCCCCCCc1cccnc1)N1CCC(C=C(c2ccccc2)c2ccccc2)CC1

>  <Label class>
y

$$$$
>  <Molecule>
CCCCCCCCCCCCc1ccccc1

>  <Label class>
n

$$$$
>  <Molecule>
Clc1nc(Cl)c(Cl)c(Cl)c1Cl

>  <Label class>
n

$$$$
>  <Molecule>
Cc1ccc(O)cc1

>  <Label class>
n

$$$$
>  <Molecule>
Cn1c(=O)c2c(ncn2C)n(C)c1=O

>  <Label class>
n

$$$$
>  <Molecule>
Nc1nc2ncc(CNc3ccc(C(=O)N[C@@H](CCC(=O)O)C(=O)O)cc3)nc2c(=O)[nH]1

>  <Label class>
n

$$$$
>  <Molecule>
CCn1nc(Cc2ccccc2)cc1C1CCN(C[C@H]2C[C@H](N(C)[C@@H](C(=O)O)C(C)C)C[C@@H]2c2cccc(F)c2)CC1

>  <Label class>
n

$$$$
>  <Molecule>
CCC(C)(C)C(=O)O[C@H]1C[C@@H](C)C=C2C=C[C@H](C)[C@H](CC[C@@H]3C[C@@H](O)CC(=O)O3)[C@H]21

>  <Label class>
y

$$$$
>  <Molecule>
Cc1[nH]cnc1C[C@H]1CCc2c(C)c3ccccc3n2C1=O

>  <Label class>
y

$$$$
>  <Molecule>
COCCOc1cc2cc(C(=O)NC3CCN(C(C)C)CC3)n(CC(=O)Nc3ccc(Cl)cn3)c2cn1

>  <Label class>
n

$$$$
>  <Molecule>
C=CC(=C)CCC=C(C)C

>  <Label class>
n

$$$$
>  <Molecule>
Cc1ccc(N)cc1O

>  <Label class>
n

$$$$
>  <Molecule>
COc1cccc(-c2ccc(/C=C\CN3CCCCCC3)cc2Cl)c1

>  <Label class>
y

$$$$
>  <Molecule>
O=C(O)CC(O)C(=O)O (stereo not drawn)

>  <Label class>
n

$$$$
>  <Molecule>
C[C@](N)(Cc1ccc(O)c(O)c1)C(=O)O

>  <Label class>
n

$$$$
>  <Molecule>
CCCCCCCCO

>  <Label class>
n

$$$$
>  <Molecule>
Oc1ccc2c(c1)-c1ccccc1C2

>  <Label class>
y

$$$$
>  <Molecule>
O=C1CCC(N2C(=O)c3ccccc3C2=O)C(=O)N1 (stereo not drawn)

>  <Label class>
n

$$$$
>  <Molecule>
CCc1cc(SCc2sc(-c3ccc(C(F)(F)F)cc3)nc2CN2CCN(c3ccc(OC)cc3)CC2)ccc1OCC(=O)O

>  <Label class>
y

$$$$
>  <Molecule>
Nc1cccc(N)c1

>  <Label class>
n

$$$$
>  <Molecule>
CC1=CC(=O)CC(C)(C)C1

>  <Label class>
n

$$$$
>  <Molecule>
CCOc1cccc(-n2cc(C(=O)N3CCN(c4cc(C(=O)O)c5ccccc5c4)CC3)nc2-c2ccc(C)cc2)c1

>  <Label class>
y

$$$$
>  <Molecule>
CCOC(=O)COc1ccc2c(c1)CC(NCC(O)c1cccc(Cl)c1)CC2 (stereo not drawn)

>  <Label class>
y

$$$$
>  <Molecule>
Fc1ccccc1[C@@H](F)COC1CCC(Nc2ncnc3[nH]ncc23)CC1 (stereo partly drawn)

>  <Label class>
y

$$$$
>  <Molecule>
O=C(NS(=O)(=O)/C=C/c1ccccc1)c1ccc(F)cc1Cl

>  <Label class>
n

$$$$
>  <Molecule>
CC(C)CCO

>  <Label class>
n

$$$$
>  <Molecule>
CCOCCOCCOCCO

>  <Label class>
n

$$$$
>  <Molecule>
CCCN(C1CCN(C(=O)C2CCNCC2)CC1)[C@@H]1CCc2ccc(OC)cc2C1

>  <Label class>
n

$$$$
>  <Molecule>
On1ccccc1=S

>  <Label class>
y

$$$$
>  <Molecule>
COC(=O)c1ccccc1O

>  <Label class>
n

$$$$
>  <Molecule>
O=C(OC[C@H]1O[C@@H](OC(=O)c2cc(O)c(O)c(OC(=O)c3cc(O)c(O)c(O)c3)c2)[C@H](OC(=O)c2cc(O)c(O)c(OC(=O)c3cc(O)c(O)c(O)c3)c2)[C@@H](OC(=O)c2cc(O)c(O)c(OC(=O)c3cc(O)c(O)c(O)c3)c2)[C@@H]1OC(=O)c1cc(O)c(O)c(OC(=O)c2cc(O)c(O)c(O)c2)c1)c1cc(O)c(O)c(OC(=O)c2cc(O)c(O)c(O)c2)c1

>  <Label class>
y

$$$$
>  <Molecule>
C1=CCCC=CCCC=CCC1

>  <Label class>
n

$$$$
>  <Molecule>
CCCCC(CC)COC(=O)CCCCCCCCC(=O)OCC(CC)CCCC (stereo not drawn)

>  <Label class>
n

$$$$
>  <Molecule>
CCCCC(CC)COC(=O)c1ccc(C(=O)OCC(CC)CCCC)cc1 (stereo not drawn)

>  <Label class>
n

$$$$
>  <Molecule>
CCCCCCc1ccc(O)cc1O

>  <Label class>
y

$$$$
